Hello, the source for this data is ChEMBL document CHEMBL1155848, in case you need it.

assay: Protein binding in mouse plasma by equilibrium dialysis; format: ADME, cell-free; details: read-out: PPB
Measured metric: fraction unbound

Lab note: "Cc1ccc(Nc2nccc(N(C)c3ccc4c(C)n(C)nc4c3)n2)cc1S(N)(=O)=O" gave fraction unbound of < 0.001

###

system: HUVEC; assay: Inhibition of VEGF-induced HUVEC proliferation; type: functional, cell-based; conditions: Homo sapiens
Below, each of the molecules is paired with its reported IC50 value.
Give the value in nM but do not write nM after it.

// below: answered molecules
> print(dat)
                                   molecule  recorded.result
1  CCS(=O)(=O)c1ccc(OC)c(Nc2nccc(Nc3ccc4c(C)n[nH]c4c3)n2)c1              130
2      Cc1ccc(Nc2ccnc(Nc3cccc(Br)c3)n2)cc1O              540
3  COc1cc2/c(=N/c3ccc(Br)cc3F)nc[nH]c2cc1OCC1CCN(C)CC1              400

// next item, IC50 requested
Lab note: COc1cc(Nc2nccc(Nc3ccc4c(C)n[nH]c4c3)n2)cc(OC)c1OC [GW612286X] gave IC50 of 180

###

assay: Plasma concentration in mouse at 100 mg/kg, po after 12 hrs; assay type: ADME, organism-based; parameters: dose 100 mg/kg, route oral
Measured metric: concentration at 12 h (ng/mL)
Give the value in ng/mL but do not write ng/mL after it.

Lab note: "Cc1ccc(Nc2nccc(N(C)c3ccc4c(C)n(C)nc4c3)n2)cc1S(N)(=O)=O" gave concentration at 12 h of 38500

###

biological target: Cytochrome P450 3A4 (Homo sapiens, UniProt P08684); assay: Inhibition of human recombinant CYP3A4 using 7-benzyloxyquinoline substrate; type: ADME
Sequence (P08684 whole entry): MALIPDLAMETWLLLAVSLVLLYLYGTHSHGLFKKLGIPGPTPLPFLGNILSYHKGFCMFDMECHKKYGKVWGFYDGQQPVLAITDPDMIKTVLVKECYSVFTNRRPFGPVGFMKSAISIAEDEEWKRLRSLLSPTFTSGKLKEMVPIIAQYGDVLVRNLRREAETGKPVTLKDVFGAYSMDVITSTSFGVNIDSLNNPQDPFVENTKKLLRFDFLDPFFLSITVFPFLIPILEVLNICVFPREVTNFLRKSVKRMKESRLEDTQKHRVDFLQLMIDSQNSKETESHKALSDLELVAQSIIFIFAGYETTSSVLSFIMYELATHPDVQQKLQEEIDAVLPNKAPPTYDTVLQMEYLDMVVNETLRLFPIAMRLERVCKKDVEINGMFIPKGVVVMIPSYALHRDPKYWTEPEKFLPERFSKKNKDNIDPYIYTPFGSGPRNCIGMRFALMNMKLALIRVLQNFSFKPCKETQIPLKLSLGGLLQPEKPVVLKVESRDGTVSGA
pIC50: −log10 of the molar value.
Please enter 1 where pIC50 is greater than or equal to 5, and -1 where it is lower.

Known results for compounds:
> print(dat)
                                   compound                                       tgt  cat
1  CN(c1ccc2cn(C)nc2c1)c1ccnc(Nc2cccc(S(N)(=O)=O)c2)n1  Cytochrome P450 3A4 (Homo sapiens, UniProt P08684)    1
2  Cc1c2ccc(N(C)c3ccnc(Nc4cccc(S(N)(=O)=O)c4)n3)cc2nn1C  Cytochrome P450 3A4 (Homo sapiens, UniProt P08684)   -1
3  Cc1nn(C)c2cc(N(C)c3ccnc(Nc4cccc(S(N)(=O)=O)c4)n3)ccc12 [GW770220A]  Cytochrome P450 3A4 (Homo sapiens, UniProt P08684)    1
4  Cc1n[nH]c2cc(N(C)c3ccnc(Nc4cccc(S(N)(=O)=O)c4)n3)ccc12  Cytochrome P450 3A4 (Homo sapiens, UniProt P08684)   -1
5  Cc1c2ccc(N(C)c3ccnc(Nc4cccc(S(N)(=O)=O)c4)n3)cc2nn1Cc1ccccc1  Cytochrome P450 3A4 (Homo sapiens, UniProt P08684)   -1
6  Cc1nc2ccc(N(C)c3ccnc(Nc4cccc(S(N)(=O)=O)c4)n3)cc2n1C  Cytochrome P450 3A4 (Homo sapiens, UniProt P08684)    1

Q: API: above_or_equal(metric=pIC50, cutoff=5) for item "Cc1nc2cc(N(C)c3ccnc(Nc4cccc(S(N)(=O)=O)c4)n3)ccc2n1C"
Result: -1
